tested on: SJSA-1 cells; experiment: Cell lysis by peptidomimetic macrocycles (LDH release); type: cell-based; conditions: 50 μM, SJSA-1, 1 h
Bridge positions count the residues as written; N and C are the ends. Square brackets hold non-standard residues; d marks the D form. Peptide text beside a SMILES is read from it. Phe(4-COOH) = N[C@@H](Cc1ccc(C(=O)O)cc1)C(=O)O; Phe(3,4-F2) = N[C@@H](Cc1ccc(F)c(F)c1)C(=O)O; R8 = C=CCCCCCC[C@@](C)(N)C(=O)O; Cba = N[C@@H](CC1CCC1)C(=O)O; S5 = C=CCCC[C@](C)(N)C(=O)O; Nle = CCCC[C@H](N)C(=O)O
MEASURE NAME: 50 μM % Lysed cells (1 h LDH) (%)

MOLECULE	TARGET OR SYSTEM	MEASURE NAME	OBSERVED VALUE
CCCC[C@H](NC(=O)[C@H](C)NC(=O)[C@H](CO)NC(=O)[C@]1(C)CCCC=CCCCCCC[C@@](C)(NC(=O)[C@H](Cc2ccccc2)NC(=O)[C@@H](NC(=O)[C@H](CC(C)C)NC(C)=O)[C@@H](C)O)C(=O)N[C@@H](CCC(=O)O)C(=O)N[C@@H](Cc2ccc(C(=O)O)cc2)C(=O)N[C@@H](Cc2c[nH]c3ccccc23)C(=O)N[C@@H](C)C(=O)N[C@@H](CCC(N)=O)C(=O)N[C@@H](CC2CCC2)C(=O)N1)C(=O)N[C@@H](C)C(N)=O [compound 244] (Ac-LTF[R8]E[Phe(4-COOH)]WAQ[Cba][S5]SA[Nle]A-NH2; staple 4-11)	SJSA-1 cells	50 μM % Lysed cells (1 h LDH)	4
CC(=O)N[C@@H](CCC(=O)O)C(=O)N[C@H](C(=O)N[C@@H](Cc1ccccc1)C(=O)N[C@]1(C)CCCCCCC=CCCC[C@@](C)(C(=O)N[C@@H](CO)C(=O)N[C@H](C(=O)N[C@@H](CO)C(N)=O)C(C)C)NC(=O)[C@H](CC(C)C)NC(=O)[C@H](CCC(N)=O)NC(=O)[C@H](C)NC(=O)[C@H](Cc2c[nH]c3ccccc23)NC(=O)[C@H](Cc2ccc(O)cc2)NC(=O)[C@H](C(C)C)NC1=O)[C@@H](C)O [compound 130] (Ac-ETF[R8]VYWAQL[S5]SVS-NH2; staple 4-11)	SJSA-1 cells	50 μM % Lysed cells (1 h LDH)	−1
CCCC[C@H](NC(=O)[C@H](C)NC(=O)[C@H](CO)NC(=O)[C@]1(C)CCCC=CCCCCCC[C@@](C)(NC(=O)[C@H](Cc2ccccc2)NC(=O)[C@@H](NC(=O)[C@H](CC(C)C)NC(C)=O)[C@@H](C)O)C(=O)N[C@@H](C)C(=O)N[C@@H](Cc2ccc(O)cc2)C(=O)N[C@@H](Cc2c[nH]c3ccccc23)C(=O)N[C@@H](C)C(=O)N[C@@H](CCC(N)=O)C(=O)N[C@@H](CC(C)C)C(=O)N1)C(N)=O [compound 3] (Ac-LTF[R8]AYWAQL[S5]SA[Nle]-NH2; staple 4-11)	SJSA-1 cells	50 μM % Lysed cells (1 h LDH)	3
CCCC[C@H](NC(=O)[C@H](C)NC(=O)[C@H](CO)NC(=O)[C@]1(C)CCCC=CCCCCCC[C@@](C)(NC(=O)[C@H](Cc2ccc(F)c(F)c2)NC(=O)[C@@H](NC(=O)[C@H](CC(C)C)NC(C)=O)[C@@H](C)O)C(=O)N[C@@H](CCC(=O)O)C(=O)N[C@@H](Cc2ccc(O)cc2)C(=O)N[C@@H](Cc2c[nH]c3ccccc23)C(=O)N[C@@H](C)C(=O)N[C@@H](CCC(N)=O)C(=O)N[C@@H](CC2CCC2)C(=O)N1)C(=O)N[C@@H](C)C(N)=O [compound 243] (Ac-LT[Phe(3,4-F2)][R8]EYWAQ[Cba][S5]SA[Nle]A-NH2; staple 4-11)	SJSA-1 cells	50 μM % Lysed cells (1 h LDH)	64
